The origin of these recorded values is the supplement of paper PMC3545927.

- assayed system: furin, P09958;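 note: purified furin at 1:10 enzyme:substrate in 50 mM HEPES pH 7.5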
- Sequence (P09958 whole entry): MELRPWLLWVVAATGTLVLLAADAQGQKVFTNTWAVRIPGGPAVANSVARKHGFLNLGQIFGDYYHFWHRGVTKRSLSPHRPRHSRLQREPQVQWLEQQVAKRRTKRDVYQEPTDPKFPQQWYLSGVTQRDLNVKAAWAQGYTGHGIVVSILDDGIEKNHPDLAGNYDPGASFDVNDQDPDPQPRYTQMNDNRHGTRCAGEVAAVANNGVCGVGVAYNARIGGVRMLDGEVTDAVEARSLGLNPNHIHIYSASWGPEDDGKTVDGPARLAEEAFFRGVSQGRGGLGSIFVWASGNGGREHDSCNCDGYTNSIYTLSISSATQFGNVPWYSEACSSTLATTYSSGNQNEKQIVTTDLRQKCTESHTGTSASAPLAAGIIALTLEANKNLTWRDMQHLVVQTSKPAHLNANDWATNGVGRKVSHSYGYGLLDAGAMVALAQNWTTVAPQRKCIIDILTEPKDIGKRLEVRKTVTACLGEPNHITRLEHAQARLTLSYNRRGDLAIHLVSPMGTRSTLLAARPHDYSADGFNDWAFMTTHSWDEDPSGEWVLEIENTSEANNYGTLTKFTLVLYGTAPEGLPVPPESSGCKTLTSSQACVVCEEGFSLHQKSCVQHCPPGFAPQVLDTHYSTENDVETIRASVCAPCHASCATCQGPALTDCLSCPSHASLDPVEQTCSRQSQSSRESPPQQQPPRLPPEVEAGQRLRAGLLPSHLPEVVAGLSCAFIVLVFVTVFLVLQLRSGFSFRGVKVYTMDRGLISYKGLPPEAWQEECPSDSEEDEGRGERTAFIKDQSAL
- experimental details: furin cleavage Z-score vs untreated control; higher = more cleavage, active = 3.5 or more, inactive = 1 or less, 8 variable residues between constant flanks
- test conditions: 15 min
Some of the results follow. How many sequences the whole screen found active is unknown.

>  <query sequence>
CATAILSSLTAGNASASA [HC1133]

>  <furin cleavage Z-score>
1.64

$$$$
>  <query sequence>
CALEECSQHLAGNASASA [HC1665]

>  <furin cleavage Z-score>
0.627

$$$$
>  <query sequence>
CAGGRAAICGAGNASASA [HC1628]

>  <furin cleavage Z-score>
-1.23

$$$$
>  <query sequence>
CAMEESSQHLAGNASASA [HC15]

>  <furin cleavage Z-score>
2.52

$$$$
>  <query sequence>
CATTPCSVSWAGNASASA [HC1890]

>  <furin cleavage Z-score>
-1.82

$$$$
>  <query sequence>
CATTPCSGIWAGNASASA [HC1904]

>  <furin cleavage Z-score>
0.611

$$$$
>  <query sequence>
CAEDEVPCHRAGNASASA [HC2451]

>  <furin cleavage Z-score>
0.677

$$$$
